- assay.system: GTPase HRas (Homo sapiens)
- measurement.protocol: activated H-Ras mutant GTP-binding inhibitors, SAR follow-up, biochemical, multiplex bead flow cytometry, round 1 (AID 588387)
- recorded.conditions: GST-H-Ras beads, Bodipy-FL-GTP binding, at 100 µM (top of the series)
Activity calls are given as the source filed them.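 How the source made its calls: active means half-maximal binding-loss concentration at or below 10 µM, response change across doses of 30% or more, acceptable curve fit; inactive means the rest.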
metric.name: % response (remaining GTP binding)

Example entries begin here.
>  <smi>
CCOC(=O)c1c(NC(=O)NC(C)(C)C)sc2c1CCN(C)C2

>  <% response (remaining GTP binding)>
inactive

$$$$
>  <smi>
CC(C)(C)OC(=O)c1c(NC(=S)NC(=O)c2ccccc2)sc2c1CCOC2

>  <% response (remaining GTP binding)>
inactive

$$$$
>  <smi>
CCOC(=O)c1c(NC(=O)Nc2ccc(C)cc2)sc2c1CCN(C)C2

>  <% response (remaining GTP binding)>
inactive

$$$$
>  <smi>
COC(=O)c1c(NC(=S)NC(=O)c2ccccc2)sc2c1CC(C)(C)OC2

>  <% response (remaining GTP binding)>
inactive

$$$$

The reported % response (remaining GTP binding) of the compound COC(=O)c1c(N)sc2c1CC(C)(C)OC2 was inactive
